// reported clearance for each item listed
# assayMethodText: Clearance in iv dosed rat
# Assay type: ADME, organism-based
# experimentalConditions: in vivo

Please review the entries below; each comes with its answer.
> print(dat)
                                   molecule  propertymeasured  valueobserved
1  O=C(NCC1(N2CCCCC2)CCCC1)N1CCN(c2nc(-c3ccc4ccccc4n3)no2)CC1         clearance     > 6 L/h/kg
2  O=C(NCC1(N2CCCCC2)CCCC1)N1CCC(c2nc(-c3ccc4ccccc4n3)no2)CC1         clearance     > 6 L/h/kg

Continue with the molecule presented below.
Asked: Can you look up the measured clearance of CC(C)N1CCCC1CNC(=O)N1CCC(c2nc(-c3ccc4ccccc4n3)no2)CC1 (stereo not drawn) for me?
Given back: > 6 L/h/kg

###

# targetOrSystem: Protein smoothened (Homo sapiens, UniProt Q99835)
# Sequence (Q99835 whole entry): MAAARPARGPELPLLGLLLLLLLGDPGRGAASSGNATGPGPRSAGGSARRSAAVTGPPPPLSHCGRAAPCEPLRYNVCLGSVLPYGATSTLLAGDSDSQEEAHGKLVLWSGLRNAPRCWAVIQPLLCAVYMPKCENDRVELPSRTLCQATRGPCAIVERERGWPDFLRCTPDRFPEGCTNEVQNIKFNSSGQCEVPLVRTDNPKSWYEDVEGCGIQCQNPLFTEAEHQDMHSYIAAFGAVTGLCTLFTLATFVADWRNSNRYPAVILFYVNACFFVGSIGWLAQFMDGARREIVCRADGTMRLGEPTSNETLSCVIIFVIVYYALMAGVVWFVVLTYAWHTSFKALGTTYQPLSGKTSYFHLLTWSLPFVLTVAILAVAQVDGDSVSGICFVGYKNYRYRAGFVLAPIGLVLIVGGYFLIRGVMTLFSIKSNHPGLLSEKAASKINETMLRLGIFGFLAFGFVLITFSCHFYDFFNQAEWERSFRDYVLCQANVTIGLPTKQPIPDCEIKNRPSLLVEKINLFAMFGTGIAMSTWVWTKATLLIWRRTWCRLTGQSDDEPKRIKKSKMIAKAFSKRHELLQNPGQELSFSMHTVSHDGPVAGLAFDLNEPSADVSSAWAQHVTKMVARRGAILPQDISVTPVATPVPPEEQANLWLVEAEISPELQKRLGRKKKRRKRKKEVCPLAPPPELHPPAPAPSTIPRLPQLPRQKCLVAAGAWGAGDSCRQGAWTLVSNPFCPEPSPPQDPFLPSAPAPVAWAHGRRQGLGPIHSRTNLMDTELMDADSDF
# assayMethodText: Displacement of BODIPY-cyclopamine from Smo expressed in COS-1 cells after 4 to 6 hrs by Flow Cytometry analysis in presence of 2% fetal calf serum
# Assay type: cell-based
propertyMeasured: pIC50
Value format note: pIC50 is -log10 of concentration (mol/L); just state the number.

Please review the entries below; each comes with its answer.
> print(dat)
                                   molecule                            targetorsystem  propertymeasured  valueobserved
1  O=C(NCC1(N2CCOCC2)CCCCCC1)N1CCC(c2nc(-c3ccc4ccccc4n3)no2)CC1  Protein smoothened (Homo sapiens, UniProt Q99835)             pIC50           6.62
2  O=C(NCC1(CO)CCCC1)N1CCC(c2nc(-c3ccc4ccccc4n3)no2)CC1  Protein smoothened (Homo sapiens, UniProt Q99835)             pIC50           6.04
3  O=C(NCC1(C(=O)N2CCCCC2)CCCC1)N1CCC(c2nc(-c3ccc4ccccc4n3)no2)CC1  Protein smoothened (Homo sapiens, UniProt Q99835)             pIC50           6.64
4  O=C(NCCN1CCOCC1)N1CCC(c2nc(-c3ccc4ccccc4n3)no2)CC1  Protein smoothened (Homo sapiens, UniProt Q99835)             pIC50           5.31
5  CCN1CCOCC1CNC(=O)N1CCC(c2nc(-c3ccc4ccccc4n3)no2)CC1 (centres undefined)  Protein smoothened (Homo sapiens, UniProt Q99835)             pIC50           6.52

Asked: Can you look up the measured pIC50 of COC1CCN(C2(CNC(=O)N3CCC(c4nc(-c5ccc6ccccc6n5)no4)CC3)CCCC2)CC1 for me?
Given back: 6.68

Asked: Can you look up the measured pIC50 of O=C(NCC1(N2CCCCC2)CCCC1)N1CCN(c2nc(-c3ccc4ccccc4n3)no2)CC1 for me?
Given back: 8.10

Asked: Can you look up the measured pIC50 of O=C(NCC(c1ccccn1)N1CCOCC1)N1CCC(c2nc(-c3ccc4ccccc4n3)no2)CC1 (centres undefined) for me?
Given back: 5.57

Asked: Can you look up the measured pIC50 of CC(C)N1CCCC1CNC(=O)N1CCC(c2nc(-c3ccc4ccccc4n3)no2)CC1 (centres undefined) for me?
Given back: 6.47
